These measurements were taken from the supplement of paper PMC6555819.

- Test system: PPARa:RXRa (NR concentration 270 nM, RXRa partner concentration 90 nM)
- ASSAY PROCEDURE: PBM binding z-score (relative to random genomic background probes); higher = stronger binding; sequences stand for … in GC…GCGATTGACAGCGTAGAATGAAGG
Entries annotated with measured PBM binding z-score
I'd appreciate a reply containing only the number, no unit.

Worked cases, PBM binding z-score given:
AGAACGAGGGCACGTTGAGTTGATAGCAGAGTAG: 2.23
TAGCCTAGGCCATTCAGGGGCCAGTATAGAAAGC: -0.185
ATCTCTAGGGAAAGATAGTTCAGTGAATGCAAAT: 0.0958
CAAACTAGGTCAAGTGGTCAAAGTCCGCTTCCCG: 5.45
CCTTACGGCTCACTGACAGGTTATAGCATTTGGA: 0.311

In: What value of PBM binding z-score has been reported for the following sequence? ACTAGCAGGCCAATGGTCACTCAAGATTAGTCCG
Out: 0.789
